Test system: ATP;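 note: ATP exposure 15 min at 22 °C before imaging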
Assay: switch fluorescence ratio, 500 uM ATP over buffer (Cy3 cluster intensity, sum of 5 cycles each) (fold (ratio)); higher = stronger signal-on switching upon ATP binding; sequences stand for … in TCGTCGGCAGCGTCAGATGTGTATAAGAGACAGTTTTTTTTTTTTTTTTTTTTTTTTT…TC
Settings: aptamer strand: ATP DNA aptamer (quencher-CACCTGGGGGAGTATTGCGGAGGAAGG + anchor), 100 nM annealed; ATP concentration: 500 uM
// switch fluorescence ratio lookup, one value per entry
# print the numeric value only

In: What does the record list as switch fluorescence ratio for CAGAAGGGGA ?
Out: 1.09

In: What does the record list as switch fluorescence ratio for GAAGTAGGTC ?
Out: 1.02

In: What does the record list as switch fluorescence ratio for GGGGGTCGCG ?
Out: 0.991

New cases:
In: What does the record list as switch fluorescence ratio for GATACGCGGG ?
Out: 0.995

In: What does the record list as switch fluorescence ratio for TCCTTTTATG ?
Out: 0.983

In: What does the record list as switch fluorescence ratio for AGGAGGATGT ?
Out: 0.98

In: What does the record list as switch fluorescence ratio for TGTGTTAAGG ?
Out: 0.973

In: What does the record list as switch fluorescence ratio for GAGAGGGAGG ?
Out: 0.979

In: What does the record list as switch fluorescence ratio for AACCAGGATT ?
Out: 0.971

====

// switch fluorescence ratio lookup, one value per entry
Tested on: ATP;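 note: ATP exposure 15 min at 22 °C before imaging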
Assay: switch fluorescence ratio, 500 uM ATP over buffer (Cy3 cluster intensity, sum of 5 cycles each) (fold (ratio)); higher = stronger signal-on switching upon ATP binding; sequences stand for … in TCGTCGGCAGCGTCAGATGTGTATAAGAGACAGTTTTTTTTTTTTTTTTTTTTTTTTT…TC
Settings: aptamer strand: ATP DNA aptamer (quencher-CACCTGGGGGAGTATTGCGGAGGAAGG + anchor), 100 nM annealed; ATP concentration: 500 uM
# print the numeric value only

Reference set (5 entries):
In: What does the record list as switch fluorescence ratio for TGTTTGTTCG ?
Out: 0.986

In: What does the record list as switch fluorescence ratio for CTGTGCAAGT ?
Out: 1.47

In: What does the record list as switch fluorescence ratio for TTTTTCAAGA ?
Out: 0.99

In: What does the record list as switch fluorescence ratio for AAGGGGCTTA ?
Out: 0.961

In: What does the record list as switch fluorescence ratio for GGTTAACTTA ?
Out: 0.979

New cases:
In: What does the record list as switch fluorescence ratio for ATGCAGATTA ?
Out: 1.02

In: What does the record list as switch fluorescence ratio for TAGATGCGGT ?
Out: 1.01

In: What does the record list as switch fluorescence ratio for TGGGAGTGGT ?
Out: 1

In: What does the record list as switch fluorescence ratio for AGGGTTTAGT ?
Out: 1

In: What does the record list as switch fluorescence ratio for TTACGGTGGT ?
Out: 1.03

====

Test system: ATP;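 note: ATP exposure 15 min at 22 °C before imaging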
Experiment: switch fluorescence ratio, 500 uM ATP over buffer (Cy3 cluster intensity, sum of 5 cycles each) (fold (ratio)); higher = stronger signal-on switching upon ATP binding; sequences stand for … in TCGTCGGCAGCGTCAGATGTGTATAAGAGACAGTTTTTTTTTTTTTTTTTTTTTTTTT…TC
Conditions: aptamer strand: ATP DNA aptamer (quencher-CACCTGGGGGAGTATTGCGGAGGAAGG + anchor), 100 nM annealed; ATP concentration: 500 uM
Given measured switch fluorescence ratio, output Condition met if it is greater than or equal to 1 and Condition not met if not.

Answered cases to consult:
In: Tell me whether switch fluorescence ratio is at least 1 here: GGGATTCCGT
Out: Condition met

In: Tell me whether switch fluorescence ratio is at least 1 here: TATAGGGACA
Out: Condition met

In: Tell me whether switch fluorescence ratio is at least 1 here: GGATTTATTT
Out: Condition met

In: Tell me whether switch fluorescence ratio is at least 1 here: GATCTCCCCT
Out: Condition met

In: Tell me whether switch fluorescence ratio is at least 1 here: CAGCTTTCGG
Out: Condition met

In: Tell me whether switch fluorescence ratio is at least 1 here: ATTGGAGGCA
Out: Condition met

In: Tell me whether switch fluorescence ratio is at least 1 here: AACTACGCTT
Out: Condition met

In: Tell me whether switch fluorescence ratio is at least 1 here: CGCATGGGGT
Out: Condition met

In: Tell me whether switch fluorescence ratio is at least 1 here: TTTGGGCATT
Out: Condition met

In: Tell me whether switch fluorescence ratio is at least 1 here: GCTAGTGTGG
Out: Condition met

New cases:
In: Tell me whether switch fluorescence ratio is at least 1 here: GGGTCAATAG
Out: Condition met

In: Tell me whether switch fluorescence ratio is at least 1 here: GGCTGTTGGT
Out: Condition not met

====

Test system: ATP;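 note: ATP exposure 15 min at 22 °C before imaging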
Experiment: switch fluorescence ratio, 500 uM ATP over buffer (Cy3 cluster intensity, sum of 5 cycles each) (fold (ratio)); higher = stronger signal-on switching upon ATP binding; sequences stand for … in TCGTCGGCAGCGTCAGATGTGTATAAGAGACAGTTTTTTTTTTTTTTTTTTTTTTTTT…TC
Conditions: aptamer strand: ATP DNA aptamer (quencher-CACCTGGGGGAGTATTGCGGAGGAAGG + anchor), 100 nM annealed; ATP concentration: 500 uM
MEASUREMENT KIND: switch fluorescence ratio
# print the numeric value only

In: What does the record list as switch fluorescence ratio for CTGGGTCTTT ?
Out: 0.99

In: What does the record list as switch fluorescence ratio for TTTTTTTTCC ?
Out: 1.15

In: What does the record list as switch fluorescence ratio for GGGCTAGCCA ?
Out: 0.979

In: What does the record list as switch fluorescence ratio for TAGATCCTTT ?
Out: 1.03

In: What does the record list as switch fluorescence ratio for TTTTTTACTC ?
Out: 1

New cases:
In: What does the record list as switch fluorescence ratio for CGCCTCATGA ?
Out: 1.04

In: What does the record list as switch fluorescence ratio for CAGTACGGGG ?
Out: 1

In: What does the record list as switch fluorescence ratio for TGCGCCCGTT ?
Out: 1

In: What does the record list as switch fluorescence ratio for TTGGAAACCA ?
Out: 1.02

In: What does the record list as switch fluorescence ratio for ACGGGTGTAG ?
Out: 0.989

====

Test system: ATP;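 note: ATP exposure 15 min at 22 °C before imaging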
Assay: switch fluorescence ratio, 500 uM ATP over buffer (Cy3 cluster intensity, sum of 5 cycles each) (fold (ratio)); higher = stronger signal-on switching upon ATP binding; sequences stand for … in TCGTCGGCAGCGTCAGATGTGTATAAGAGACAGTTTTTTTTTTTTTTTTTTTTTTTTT…TC
Settings: aptamer strand: ATP DNA aptamer (quencher-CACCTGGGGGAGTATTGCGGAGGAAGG + anchor), 100 nM annealed; ATP concentration: 500 uM
MEASUREMENT KIND: switch fluorescence ratio

Reference set (3 entries):
In: What does the record list as switch fluorescence ratio for TTGCACTACT ?
Out: 1.5

In: What does the record list as switch fluorescence ratio for TTTTTTAATC ?
Out: 1.02

In: What does the record list as switch fluorescence ratio for AGTTGAGGGG ?
Out: 0.985

New cases:
In: What does the record list as switch fluorescence ratio for ATAGTAACAC ?
Out: 1.06

In: What does the record list as switch fluorescence ratio for TAGCCCGGTG ?
Out: 1.47

In: What does the record list as switch fluorescence ratio for TTTAGCCATT ?
Out: 0.992

In: What does the record list as switch fluorescence ratio for CGATGGTAAG ?
Out: 0.972

In: What does the record list as switch fluorescence ratio for CTCTAAGGGT ?
Out: 1.01

In: What does the record list as switch fluorescence ratio for CCTTATAATT ?
Out: 1.02

In: What does the record list as switch fluorescence ratio for TAAAGGCAAG ?
Out: 1.02

In: What does the record list as switch fluorescence ratio for GCACAAGTTG ?
Out: 1.02

====

Tested on: ATP;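 note: ATP exposure 15 min at 22 °C before imaging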
Assay: switch fluorescence ratio, 500 uM ATP over buffer (Cy3 cluster intensity, sum of 5 cycles each) (fold (ratio)); higher = stronger signal-on switching upon ATP binding; sequences stand for … in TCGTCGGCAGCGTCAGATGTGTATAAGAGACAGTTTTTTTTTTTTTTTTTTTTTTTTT…TC
Conditions: aptamer strand: ATP DNA aptamer (quencher-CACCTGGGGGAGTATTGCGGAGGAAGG + anchor), 100 nM annealed; ATP concentration: 500 uM
Given measured switch fluorescence ratio, output Satisfied if it is greater than or equal to 1 and Not satisfied if not.

Answered cases to consult:
In: Tell me whether switch fluorescence ratio is at least 1 here: GGGAGAAGGT
Out: Not satisfied

In: Tell me whether switch fluorescence ratio is at least 1 here: GATGGTTATC
Out: Not satisfied

In: Tell me whether switch fluorescence ratio is at least 1 here: GGTCTGGGGG
Out: Not satisfied

In: Tell me whether switch fluorescence ratio is at least 1 here: TTTGAACGTG
Out: Not satisfied

# next sequence below
In: Tell me whether switch fluorescence ratio is at least 1 here: AAGATACAGA
Out: Satisfied
